system: MV-4-11 cells; assay: Her2 degradation Method 2: MV-4-11 cell survival, Cell Counting Kit-8 (Table 2: inhibition of Hsp90); type: cell-based; conditions: Homo sapiens, MV4-11, 72 hours, cell survival by Cell Counting Kit-8, text calls it IC50 for Her2 degradation, read-out: IC50 range of compounds of the invention for inhibition of Hsp90, IC50
pIC50: −log10 of the molar value.

# Smiles string, pIC50
measured = [
    ("COc1ccc(-n2c(C(N)=O)nnc2-c2cc3c(cc2O)OCCC3)cc1", "< 4.30"),
    ("COc1ccc(-n2c(C(N)=O)nnc2-c2ccc3c(c2O)CCCC3)cc1", "< 4.30"),
    ("COc1ccc(-n2c(C(N)=O)nnc2-c2c(O)ccc3ccccc23)cc1", "4.30 to 4.70"),
    ("NC(=O)c1nnc(-c2cc3c(cc2O)OCO3)n1-c1ccc(N2CCOCC2)cc1", "4.30 to 4.70"),
    ("NC(=O)c1nnc(-c2cc3c(cc2O)OCCC3)n1-c1ccc2c(c1)OCO2", "≥ 5.00"),
    ("COc1ccc(-n2c(C(N)=O)nnc2-c2cc3c(cc2O)OCC3)cc1", "4.30 to 4.70"),
    ("COc1ccc(-n2c(C(N)=O)nnc2-c2cc3c(cc2O)CCC3)cc1", "4.70 to 5.00"),
    ("COc1ccc(-n2c(C(N)=O)nnc2-c2c(O)ccc3c2CCCC3)cc1", "4.30 to 4.70"),
]

Ref: patent US9126953B2
